Biological target: DDR1 (Homo sapiens (Human), UniProt Q08345)
Sequence (Q08345 19-913): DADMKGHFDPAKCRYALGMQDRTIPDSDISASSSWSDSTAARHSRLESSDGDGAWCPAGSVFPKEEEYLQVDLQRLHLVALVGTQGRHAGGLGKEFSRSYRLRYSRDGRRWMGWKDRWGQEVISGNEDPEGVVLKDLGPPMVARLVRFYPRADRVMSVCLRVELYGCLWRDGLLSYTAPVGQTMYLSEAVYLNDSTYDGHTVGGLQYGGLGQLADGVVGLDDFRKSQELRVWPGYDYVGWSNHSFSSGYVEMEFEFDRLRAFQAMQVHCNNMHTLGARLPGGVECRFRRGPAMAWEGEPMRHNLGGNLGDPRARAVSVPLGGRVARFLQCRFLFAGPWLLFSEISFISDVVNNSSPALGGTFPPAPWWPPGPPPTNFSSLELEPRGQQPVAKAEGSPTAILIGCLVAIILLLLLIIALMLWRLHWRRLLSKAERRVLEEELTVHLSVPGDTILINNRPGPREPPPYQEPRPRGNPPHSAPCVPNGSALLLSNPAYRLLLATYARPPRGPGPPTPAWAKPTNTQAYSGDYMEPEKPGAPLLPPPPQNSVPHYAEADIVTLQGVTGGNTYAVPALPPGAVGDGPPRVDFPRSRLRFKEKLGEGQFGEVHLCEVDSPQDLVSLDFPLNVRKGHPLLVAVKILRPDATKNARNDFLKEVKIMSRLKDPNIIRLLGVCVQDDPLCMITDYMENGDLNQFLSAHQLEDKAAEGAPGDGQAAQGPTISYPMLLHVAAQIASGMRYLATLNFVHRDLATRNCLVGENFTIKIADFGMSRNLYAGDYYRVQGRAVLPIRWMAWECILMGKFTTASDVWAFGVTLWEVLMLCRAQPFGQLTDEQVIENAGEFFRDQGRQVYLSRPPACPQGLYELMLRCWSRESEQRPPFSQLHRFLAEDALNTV
Assay: Measurement of DDR1 enzyme inhibitory activity (phosphorylation of biotinylated peptide, time-resolved fluorescence)
Assay type: biochemical
Conditions: read-out: DDR1 enzyme inhibition assay IC50
reported-property: IC50 (µM)

Worked examples, 3 compounds total:
- CCS(=O)(=O)c1ccc(Cl)cc1Cn1cnc2cc(CN3CC[C@H](N)C3)c(Br)cc2c1=O: 0.14
- CCS(=O)(=O)c1ccc(Cl)cc1Cn1cnc2c(Br)c(CN3CCNCC3)c(Br)cc2c1=O: 0.09
- CCS(=O)(=O)c1ccc(Cl)cc1Cn1cnc2cc(CN3CC[C@@H](N)C3)c(Br)cc2c1=O: 0.17

[1] CCS(=O)(=O)c1ccc(Cl)cc1Cn1cnc2cc(CN3CCC(N4CCCCC4)C3)c(Br)cc2c1=O (centres unmarked)
[2] CCS(=O)(=O)c1ccc(Cl)cc1Cn1cnc2c(Br)c(CN3CCN(C(C)C)CC3)c(Br)cc2c1=O
# returns the entry with the larger IC50; inputs 1 and 2 Response format: the label of the selected entry.
2

###

Molecular target: DDR1 (Homo sapiens (Human))
Assay: Measurement of DDR1 enzyme inhibitory activity (phosphorylation of biotinylated peptide, time-resolved fluorescence)
Format: biochemical
Details: human DDR1 enzyme, biotinylated peptide phosphorylation; read-out: DDR1 enzyme inhibition assay IC50
pIC50: −log10 of the molar value.
reported-property: pIC50

- Cc1cc(Br)c2ncn(Nc3cc(Cl)ccc3Sc3ccccc3)c(=O)c2c1: 6.82
- CCSc1ccc(Cl)cc1Nn1cnc2c(-c3ccc(F)cc3)cc(C)cc2c1=O: 6.96

[a] CCS(=O)(=O)c1ccc([N+](=O)[O-])cc1Cn1ccc2ccc(C(F)(F)F)cc2c1=O
[b] CCS(=O)(=O)c1ccc(Cl)cc1Cn1cnc2c(Cl)cc(OC(F)(F)F)cc2c1=O
Sorting ascending by pIC50, which comes first: a or b ? Response format: the label of the selected entry.
a
(a: 6.31, b: 6.92)

###

Molecular target: DDR1 (Homo sapiens (Human), UniProt Q08345)
Test: Measurement of DDR1 enzyme inhibitory activity (phosphorylation of biotinylated peptide, time-resolved fluorescence)
Type: biochemical
Conditions: human DDR1 enzyme, biotinylated peptide phosphorylation; read-out: DDR1 enzyme inhibition assay IC50
pIC50: −log10 of the molar value.
reported-property: pIC50

[I] C#Cc1ccc(S(=O)(=O)CC)c(Nn2cnc3c(Br)cc(C(F)(F)F)cc3c2=O)c1
[II] CCSc1ccc(Br)cc1Nn1cnc2c(Br)cc(OC(F)(F)F)cc2c1=O
[III] CCS(=O)(=O)c1ccc(C#N)cc1Cn1cnc2ccc(C(F)(F)F)cc2c1=O
[IV] CCS(=O)(=O)c1ccc(Cl)cc1Nn1cnc2cc3c(cc2c1=O)OCO3
Order the 4 listed items from lowest to highest according to pIC50. Your reply should list the labels following the order given in the request.
IV, III, II, I

###

Target: DDR1 (Homo sapiens (Human))
Test: Measurement of DDR1 enzyme inhibitory activity (phosphorylation of biotinylated peptide, time-resolved fluorescence)
Type: biochemical
Settings: human DDR1 enzyme, biotinylated peptide phosphorylation; read-out: DDR1 enzyme inhibition assay IC50
reported-property: IC50 (nM)

- CCS(=O)(=O)c1ccc(F)cc1Nn1cnc2c(Br)cc(OC(F)(F)F)cc2c1=O: 150

[A] CCSc1ncc(Cl)cc1Nn1cnc2c(Br)cccc2c1=O
[B] CCS(=O)(=O)c1ccc(Cl)cc1Nn1cnc2cc(C)c(Br)cc2c1=O
[C] CCS(=O)(=O)c1ccc(Cl)cc1Nn1cnc2ccc(OC)cc2c1=O
Order the records, beginning with the lowest IC50 and ending with the highest. Your reply should list the labels following the order given in the request.
C, B, A

###

Biological target: DDR1 (Homo sapiens (Human))
Assay: Measurement of DDR1 enzyme inhibitory activity (phosphorylation of biotinylated peptide, time-resolved fluorescence)
Assay type: biochemical
Details: human DDR1 enzyme, biotinylated peptide phosphorylation; read-out: DDR1 enzyme inhibition assay IC50
Description: 1. Measurement of DDR1 Enzyme Inhibitory Activity The DDR1 enzyme inhibitory activity was determined with human DDR1 enzyme prepared using the baculovirus expression system, based on the inhibitory activity of phosphorylation of a biotinylated peptide ([…]) by the enzyme. […]
reported-property: IC50 (nM)

Worked examples, 5 compounds total:
* CCS(=O)(=O)c1ccc([N+](=O)[O-])cc1Cn1ccc2ccc(OC(F)(F)F)cc2c1=O | 810
* CCSc1ccc(Cl)cc1Nn1cnc2cc(F)c(F)cc2c1=O | 100
* CCCc1ccc2ncn(Nc3cc(Cl)ccc3S(=O)(=O)CC)c(=O)c2c1 | 240
* CCS(=O)(=O)c1ccc(Cl)cc1Nn1cnc2ccc(C)cc2c1=O | 110
* CCSc1ccc(Cl)cc1Nn1cnc2c(Br)cc(C(F)(F)F)cc2c1=O | 290

[I] CCS(=O)(=O)c1ncc(Cl)cc1Nn1cnc2ccc(C(F)(F)F)cc2c1=O
[II] CCOc1ccc2ncn(Nc3cc(Cl)ccc3SCC)c(=O)c2c1
# returns the entry with the larger IC50; inputs I and II Response format: the label of the selected entry.
I
(I: 430 nM, II: 250 nM)

[a] CCSc1ccc(Cl)cc1Nn1cnc2c(Cl)cc(C(F)(F)F)cc2c1=O
[b] CCSc1ccc(Br)cc1Nn1cnc2c(Br)cc(C(F)(F)F)cc2c1=O
# returns the entry with the larger IC50; inputs a and b Response format: the label of the selected entry.
a
(a: 400 nM, b: 180 nM)

###

Target: DDR1 (Homo sapiens (Human), UniProt Q08345)
Assay: Measurement of DDR1 enzyme inhibitory activity (phosphorylation of biotinylated peptide, time-resolved fluorescence)
Assay type: biochemical
Conditions: human DDR1 enzyme, biotinylated peptide phosphorylation; read-out: DDR1 enzyme inhibition assay IC50
reported-property: IC50 (nM)

- CCS(=O)(=O)c1ccc(Cl)cc1Nn1cnc2ccc(N)cc2c1=O [Compound A-58]: 4050
- CCSc1ccc(F)cc1Nn1cnc2c(Br)cc(OC(F)(F)F)cc2c1=O [Compound C-19]: 340
- CCS(=O)(=O)c1ccc(C(F)(F)F)cc1Nn1cnc2c(Br)cc(C(F)(F)F)cc2c1=O [Compound C-35]: 210
- CCS(=O)(=O)c1ccc(Cl)cc1Nn1cnc2cc(Br)c(C(F)F)cc2c1=O [Compound A-6]: 70
- CCS(=O)(=O)c1ccc(C#N)cc1Nn1cnc2c(Br)cc(C)cc2c1=O [Compound C-2]: 160
- CCS(=O)(=O)c1ccc(Cl)cc1Cn1cnc2cc(C)c(Br)cc2c1=O [Compound E-6]: 1100

[a] CCSc1ccc(Cl)cc1Nn1cnc2cnc(Cl)cc2c1=O [Compound A-14]
[b] CCS(=O)(=O)c1ccc(Cl)cc1Cn1cnc2c(Br)cc(OC(F)(F)F)cc2c1=O [Compound E-12]
[c] CCS(=O)(=O)c1ccc(Cl)cc1Nn1cnc2cc(OC)c(OC)cc2c1=O [Compound A-39]
Reorder: IC50, max to min. Your reply should list the labels following the order given in the request.
c, b, a

[I] CCSc1ccc(Cl)cc1Nn1cnc2c(Br)cc(C)cc2c1=O [Compound A-1]
[II] CCS(=O)(=O)c1ccc(Cl)cc1Nn1cnc2ccc(F)cc2c1=O [Compound A-29]
[III] CCS(=O)(=O)c1ccc(Cl)cc1Nn1cnc2ncc(C#N)cc2c1=O [Compound A-18]
[IV] CCSc1ccc(C#N)cc1Nn1cnc2ccc(C(F)(F)F)cc2c1=O [Compound C-9]
[V] CCSc1ccc(Cl)cc1Nn1cnc2cc(C)c(Br)cc2c1=O [Compound A-7]
Order the records, beginning with the lowest IC50 and ending with the highest. Your reply should list the labels following the order given in the request.
IV, I, II, V, III

[A] N#Cc1ccc(S(=O)(=O)c2ccccc2)c(Nn2cnc3ccc(C(F)(F)F)cc3c2=O)c1 [Compound B-16]
[B] CCSc1ccc(C#N)cc1Nn1cnc2c(Br)cc(OC(F)(F)F)cc2c1=O [Compound C-13]
Sorting ascending by IC50, which comes first: A or B ? Response format: the label of the selected entry.
B
(B: 110 nM, A: 1470 nM)

[I] CCSc1ccc(Cl)cc1Cn1cnc2cc(C)c(I)cc2c1=O [Compound E-7]
[II] CCS(=O)(=O)c1ccc(Cl)cc1Nn1cnc2c(I)cc(C(F)(F)F)cc2c1=O [Compound A-13]
[III] CCS(=O)(=O)c1ccc(Cl)cc1Nn1cnc2c(-c3ccc(F)cc3)cc(C)cc2c1=O [Compound A-4]
Reorder: IC50, max to min. Your reply should list the labels following the order given in the request.
III, I, II

[I] CCS(=O)(=O)c1ccc(Cl)cc1Cn1cnc2c(Br)cc(C)cc2c1=O [Compound E-2]
[II] CCS(=O)(=O)c1ccc(Br)cc1Nn1cnc2c(Br)cc(OC(F)(F)F)cc2c1=O [Compound C-24]
[III] CCS(=O)(=O)c1ccc(C#N)cc1Nn1cnc2ncc(Br)cc2c1=O [Compound C-8]
Reorder: IC50, max to min. Your reply should list the labels following the order given in the request.
III, I, II
